- ASSAYED_SYSTEM: human apical sodium-dependent transporter (SLC10A2, ASBT) (Homo sapiens)
- Sequence (Q12908 whole entry): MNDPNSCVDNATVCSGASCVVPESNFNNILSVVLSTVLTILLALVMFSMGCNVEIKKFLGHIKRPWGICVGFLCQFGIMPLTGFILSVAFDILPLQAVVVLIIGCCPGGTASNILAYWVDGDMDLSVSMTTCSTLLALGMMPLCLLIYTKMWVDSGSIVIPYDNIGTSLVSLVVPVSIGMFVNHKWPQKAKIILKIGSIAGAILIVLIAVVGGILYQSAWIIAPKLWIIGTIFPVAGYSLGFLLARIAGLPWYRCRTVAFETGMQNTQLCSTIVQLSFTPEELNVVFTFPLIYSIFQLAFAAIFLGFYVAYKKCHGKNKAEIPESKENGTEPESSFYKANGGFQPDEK
- ASSAY_NOTES: ASBT cis-inhibition of taurocholate uptake in ASBT-MDCK cells
- CONDITION_NOTES: Ki, inhibitor concentration range 0-50 μM; mean±S.E.
Where a name gives a salt, the structure may show the parent alone.
Ki by entry:
Express the result in µM but write the number alone.

Answered cases to consult:
COMPOUND | MEASUREMENT_TYPE | REPORTED_MEASUREMENT
Cc1c(OCC(F)(F)F)ccnc1C[S+]([O-])c1nc2ccccc2[nH]1 (stereo not shown) | Ki | 62.1
CCCCOc1cc(C(=O)NCCN(CC)CC)c2ccccc2n1 [Dibucaine hydrochloride, dibucaine hydrochloride] | Ki | 93.2

Ki reported for this compound CCCCNc1cc(C(=O)O)cc(S(N)(=O)=O)c1Oc1ccccc1 [Bumetanide, bumetanide] : 232

Ki reported for this compound CN1CCCCC1CCN1c2ccccc2Sc2ccc([S+](C)[O-])cc21 (stereo not shown) [Mesoridazine besylate] : 69.9
